The reported measurements were obtained from PubChem BioAssay AID1919010.

- Tested on: Hs578T complex spheroid growth, percent test/control
- assay: Anticancer human tumor Hs578T cell line growth inhibition [AhR];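 note: luminescent viability signal as a proxy for spheroid growth; spheroids exposed to agents for one week after three days of growth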
- condition notes: second compound 1 µM; first compound 0.00316 µM; active compounds read low
quantity name: viability, T/C (%)
// units = %; emit number, no label

molecule	unit spec	viability, T/C
CC[C@@]1(O)C(=O)OCc2c1cc1n(c2=O)Cc2cc3c(CN(C)C)c(O)ccc3nc2-1 + Cc1cncc(-c2nc(NCCc3c[nH]c4ccccc34)c3ncn(C(C)C)c3n2)c1	%	98.2
CC1COCCN1c1cc(-c2ccnn2C)c2ccnc(-c3ccn[nH]3)c2n1 (stereo unspecified) + Cc1ccccc1N=Nc1ccc(NC(=O)c2ccnn2C)c(C)c1	%	106
Nc1ncn(C2CC(O)C(CO)O2)c(=O)n1 (stereo unspecified) + Cc1cncc(-c2nc(NCCc3c[nH]c4ccccc34)c3ncn(C(C)C)c3n2)c1	%	109
CC1COCCN1c1cc(-c2ccnn2C)c2ccnc(-c3ccn[nH]3)c2n1 (stereo unspecified) + CC(CO)NC(=O)c1cc(-c2ccc(Cl)cc2)nn(-c2cnn(C)c2)c1=O	%	123
Cn1ncnc1C1c2n[nH]c(=O)c3cc(F)cc(c23)NC1c1ccc(F)cc1 (stereo unspecified) + Cc1ccccc1N=Nc1ccc(NC(=O)c2ccnn2C)c(C)c1	%	107

As a next step, examine the molecule that follows.
**Query** # query: viability, T/C of entry Cn1ncnc1C1c2n[nH]c(=O)c3cc(F)cc(c23)NC1c1ccc(F)cc1 (stereo unspecified) + CC(CO)NC(=O)c1cc(-c2ccc(Cl)cc2)nn(-c2cnn(C)c2)c1=O
**Result** 127
